- Tested on: SUM149PT spheroids with HUVEC/MSC, viability
- protocol: Anticancer human tumor SUM149PT cell line growth inhibition [GQUAD];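 note: spheroids exposed to drugs for seven days before readout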
- conditions: second compound 0.1 µM; first compound 3.16 µM; hits give low values
Cut-off 80% on viability, T/C: below means Y, at or above means N.

[
  {
    "compound": "COc1ccc([C@@H](O)c2cc(-c3ncnc4cc(N5CCOCC5)ccc34)c(F)cc2Cl)nn1 + CN(C)c1ccc(Nc2c3ccc(NC(=O)CCN4CCCC4)cc3nc3cc(NC(=O)CCN4CCCC4)ccc23)cc1",
    "assay-target": "SUM149PT spheroids with HUVEC/MSC, viability",
    "assigned-category": "Y"
  }
]

Request: # check: viability, T/C < 80% for C=CCn1c(=O)c2cnc(Nc3ccc(N4CCN(C)CC4)cc3)nc2n1-c1cccc(C(C)(C)O)n1 + Cc1[nH]c2ccc(F)cc2c1-c1nc2c3cccnc3c3ncccc3c2[nH]1
Response: Y

Request: # check: viability, T/C < 80% for CC(C)(O)C1CCC(Nc2ccc3ncc(-c4cccc(C(F)(F)F)c4)n3n2)CC1 (stereo unspecified) + Cc1[nH]c2ccc(F)cc2c1-c1nc2c3cccnc3c3ncccc3c2[nH]1
Response: Y

Request: # check: viability, T/C < 80% for C=CC(=O)N1CCN(c2nc(=O)n(-c3c(C)ccnc3C(C)C)c3nc(-c4c(O)cccc4F)c(F)cc23)C(C)C1 (stereo unspecified) + CN(C)c1ccc(Nc2c3ccc(NC(=O)CCN4CCCC4)cc3nc3cc(NC(=O)CCN4CCCC4)ccc23)cc1
Response: N

Ref: PubChem BioAssay AID2060484
